system: OVCAR-3 ovarian; assay: NCI-60 one-dose screen, 48 h (100 = growth as untreated, 0 = no growth, -100 = all killed); conditions: 10 µM unless noted
Compounds without any hit were thinned out: in the full panel of roughly 83,000, 20% have a hit. The source made the active and inactive calls. Rule for the calls: active = growth percent below 10; inactive = the rest.
Kindly supply the reported growth values for the records listed here.

IN: // fetch growth given entry [O-]/[N+](=C\c1ccc(-n2cc(Cc3ccccc3Cc3cn(-c4ccc(/C=[N+](/[O-])c5ccccc5)cc4)nn3)nn2)cc1)c1ccccc1
OUT: 102% (inactive)

IN: // fetch growth given entry COc1ccc(C/C(C)=C(\c2ccc(Cl)cc2)c2ccc(OCCN3CCCCC3)cc2)cc1
OUT: 114% (inactive)

IN: // fetch growth given entry C=C1CC[C@@H]2[C@](C)(COC(C)=O)[C@H](OC(C)=O)CC[C@@]2(C)[C@@H]1CC(Nc1ccc(S(=O)(=O)Nc2ncccn2)cc1)C1=CCOC1=O (some centres not stated)
OUT: -80.6% (active)

IN: // fetch growth given entry CCOC(=O)C(=O)C(C(=O)OCC)c1ccccc1 (configuration not stated)
OUT: 120% (inactive)

IN: // fetch growth given entry O=[N+]([O-])c1ccc(O)cc1Br
OUT: 106% (inactive)

IN: // fetch growth given entry Cc1c[n+](Cc2ccc3ccccc3c2)cn1Cc1ccc2ccccc2c1
OUT: -2.44% (active)

IN: // fetch growth given entry N#Cc1nc(-c2ccc(F)cc2)oc1S(=O)(=O)N1CCCCC1
OUT: -54.5% (active)

IN: // fetch growth given entry Cc1ccc(-c2nc([P+](c3ccccc3)(c3ccccc3)c3ccccc3)c(S(=O)(=O)c3ccc(C)cc3)o2)cc1
OUT: 0.238% (active)

IN: // fetch growth given entry O=C(NNC(=O)c1ccc(NC(=O)c2ccccn2)cc1)Nc1ccc([N+](=O)[O-])cc1
OUT: 109% (inactive)

IN: // fetch growth given entry Cc1ccc2c(n1)C(=O)C(Br)=C(C1CCCC1)C2=O
OUT: 82.9% (inactive)

IN: // fetch growth given entry C=CCn1c(C)nc2ccc(Nc3nc(Nc4ccc5nc(C)n(CC=C)c5c4)c4ccccc4n3)cc21
OUT: -95.4% (active)

IN: // fetch growth given entry COc1ccc(/C=C(\C#N)n2nnc3ccc(Cl)cc32)cc1
OUT: -18.4% (active)

IN: // fetch growth given entry O=C(C[C@]1(O)C(=O)Nc2ccccc21)c1cccc(C(F)(F)F)c1
OUT: 77.9% (inactive)

IN: // fetch growth given entry CCOc1ccc(NC(=O)CSc2oc(-c3ccccc3)nc2S(=O)(=O)c2ccc(C)cc2)cc1
OUT: 56.8% (inactive)

IN: // fetch growth given entry Fc1cccc(Oc2ccc(Nc3ncnc4ccc(OCCCN5CCOCC5)cc34)cc2Cl)c1
OUT: 45.4% (inactive)

IN: // fetch growth given entry COc1ccc2c(c1)c(-c1nc(-c3c[nH]c4ccncc34)cs1)cn2C
OUT: -90.5% (active)

IN: // fetch growth given entry O=C1/C(=C/c2cccc(F)c2)CN(C(=O)C(Cl)Cl)C/C1=C\c1cccc(F)c1
OUT: -92.2% (active)

IN: // fetch growth given entry O=C(Nc1cccc(-c2ccc(N3CCOCC3)nn2)c1)Nc1cccc(C(F)(F)F)c1
OUT: 74.3% (inactive)

IN: // fetch growth given entry COC(=O)CC[C@H](C)[C@H]1CC[C@H]2[C@@H]3CC[C@@H]4CC5(CC[C@]4(C)[C@H]3CC(=O)[C@]12C)Nc1ccccc1NC5=NC(C)(C)C (some centres not stated)
OUT: 76% (inactive)

IN: // fetch growth given entry Cc1ccc(NC(=O)Cn2cc(CN3CCN(c4ccnc5cc(Cl)ccc45)CC3)nn2)cc1
OUT: 91.3% (inactive)

IN: // fetch growth given entry CS(=O)(=O)Nc1cc(-c2ccc3ncnc(Nc4ccc5c(cnn5Cc5ccc(F)cc5)c4)c3c2)cnc1Cl
OUT: 9.71% (active)

IN: // fetch growth given entry Clc1ccc(/C=N\N=C\c2ccc(Cl)c(Cl)c2)cc1Cl
OUT: 119% (inactive)

IN: // fetch growth given entry O=C1NC2(Nc3ccccc31)C(=O)Nc1c(Cl)cc(Cl)cc12 (configuration not stated)
OUT: 118% (inactive)

IN: // fetch growth given entry Nc1n[nH]c2cccc(C#Cc3cccc(NC(=O)c4cc(F)cc(C(F)(F)F)c4)c3)c12
OUT: 80.7% (inactive)

IN: // fetch growth given entry CCOC(=O)c1c(C(=O)c2cn(C)c3ccc(Br)cc23)c(-c2cn(C)c3ccc(Br)cc23)n(NC(=O)OC(C)(C)C)c1C
OUT: 88.5% [100 µM] (inactive)

IN: // fetch growth given entry CCSc1nc2scc(C)c2c(=O)[nH]1
OUT: 107% (inactive)

IN: // fetch growth given entry Cc1ccccc1/C=C/C(=O)c1cccc(OCCCCOc2cccc(C(=O)/C=C/c3ccccc3C)c2)c1
OUT: 104% (inactive)
